# assay.comment: Drug concentration in C57BL/6J mouse plasma at 10 mg/kg, po measured after 8 hrs LC-MS/MS analysis
# Type: ADME, organism-based
property.label: concentration at 8 h

Sample CCCCCCCCCCc1ccc(NC(=O)N2CCNCC2)cc1.Cl — what was its concentration at 8 h? > 500 nM

Source of measurements: ChEMBL document CHEMBL5500421
